# system_name: T1, human neonatal Fc receptor (hFcRn) (human, UniProt P55899 24-290; P61769 21-119)
# T1 construct: Biotinylated in the ELISA, Octet and yeast assays; also called human FcRn; huFcRn
# measurement_description: phage ELISA pH 7.4;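 note: higher score means stronger binding and above about 3 to 5 exceeds background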
property_label: ELISA score

binder="L5 isolate with insertion SEQ ID NO: 479 (other) EPKSCDKTHTCPPCPAPELLGGPSVFLFPPKPKDTLMISRTPEVTCVVVDVSHEDPEVKFNWYVDGVEVHNAKTKPREEQYNSTYRVVSVLTVLHQDWLNGKEYKCKVSNKALPAPIEKTISKAKGQPREPQVYTLPPSRDELTKNQVSLTCLVKGFYPSDIAVEWESNGGCMFSHPHCGGGQPENNYKTTPPVLDSDGSFFLYSKLTVDKSRWQQGNVFSCSVMHEALHNHYTQKSLSLSPGK" property_label="ELISA score" reported_value=0.7
binder="L5 isolate with insertion SEQ ID NO: 442 (other) EPKSCDKTHTCPPCPAPELLGGPSVFLFPPKPKDTLMISRTPEVTCVVVDVSHEDPEVKFNWYVDGVEVHNAKTKPREEQYNSTYRVVSVLTVLHQDWLNGKEYKCKVSNKALPAPIEKTISKAKGQPREPQVYTLPPSRDELTKNQVSLTCLVKGFYPSDIAVEWESNGGCNVLDLFCGGGQPENNYKTTPPVLDSDGSFFLYSKLTVDKSRWQQGNVFSCSVMHEALHNHYTQKSLSLSPGK" property_label="ELISA score" reported_value=0.3
binder="L5 isolate with insertion SEQ ID NO: 433 (other) EPKSCDKTHTCPPCPAPELLGGPSVFLFPPKPKDTLMISRTPEVTCVVVDVSHEDPEVKFNWYVDGVEVHNAKTKPREEQYNSTYRVVSVLTVLHQDWLNGKEYKCKVSNKALPAPIEKTISKAKGQPREPQVYTLPPSRDELTKNQVSLTCLVKGFYPSDIAVEWESNGGCEIPHSFCGGGQPENNYKTTPPVLDSDGSFFLYSKLTVDKSRWQQGNVFSCSVMHEALHNHYTQKSLSLSPGK" property_label="ELISA score" reported_value=0.7
